Experiment: chemical genetic growth profiling, strain panel (AID 1159580);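 further: tested at 20 µM; growth read once vehicle control cultures reached saturation at 30 °C; 1 = growth at the plate median or of vehicle wells; lower values mean less growth of the strain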
Conditions: S. cerevisiae deletion strains, growth OD, locus YNL322C, strain KRE1, stronger effect = lower value
Screen size: about 5,500 compounds; about 2,000 (36%) were called active. Not shown: some 18% with an inconclusive outcome. Some of the results follow.
Rule: normalized growth below 1 gives TRUE. Equal to or above 1 gives FALSE.

>  <Compound>
O=C(CSc1ccc(Cl)cc1)Nc1ccc(F)cc1

>  <Assigned category>
TRUE

$$$$
>  <Compound>
Fc1ccc(C(OCCCc2cnc[nH]2)c2ccc(F)cc2)cc1

>  <Assigned category>
FALSE

$$$$
>  <Compound>
COc1ccc2c(c1)OC/C(=C\c1ccc(OC)c(O)c1)C2=O

>  <Assigned category>
TRUE

$$$$
>  <Compound>
Fc1ccc(C(OCCN2CCN(CCCc3ccccc3)CC2)c2ccc(F)cc2)cc1

>  <Assigned category>
TRUE

$$$$
>  <Compound>
CCCCCCCCCCCCN1CNC(=S)NC1

>  <Assigned category>
TRUE

$$$$
>  <Compound>
COC(=O)C1C(O)CCC2CN3CCc4c([nH]c5ccccc45)C3CC21 (centres undefined)

>  <Assigned category>
FALSE

$$$$
>  <Compound>
CC[C@@]1(O)C[C@H](O[C@H]2C[C@H](N(C)C)[C@H](O)[C@H](C)O2)c2c(cc3c(c2O)C(=O)c2c(O)cccc2C3=O)[C@H]1C(=O)OC

>  <Assigned category>
TRUE

$$$$
>  <Compound>
CCCCC[C@H]1C(=O)O[C@H](C)[C@H](NC(=O)c2cccc(NC=O)c2O)C(=O)O[C@@H](C)[C@@H]1OC(=O)CC(C)C

>  <Assigned category>
TRUE

$$$$

###

Test: chemical genetic growth profiling, strain panel (AID 1159580);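 further: tested at 20 µM; growth read once vehicle control cultures reached saturation at 30 °C; 1 = growth at the plate median or of vehicle wells; lower values mean less growth of the strain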
Settings: S. cerevisiae deletion strains, growth OD, locus YOR316C, strain cot1, stronger effect = lower value
Hit rate of the full screen: of about 5,500 compounds, about 2,000 (36%) were called active. Inconclusive results (about 18%) are left out. Some of the results follow.
normalized growth by entry:
Property label: normalized growth

>  <Molecule>
COC(=O)C[C@H]1C2(C)CC34OC5(C)O[C@@]6([C@H](OC)C(OC(=O)C(C)C)[C@]7(C)C(/C(=C(/OC)C(C)C)C(=O)O[C@H]7c7ccoc7)[C@@]6(O5)[C@H](OC)[C@@]3(OC)C2OC(C)=O)[C@]14C (some centres not stated)

>  <Value>
1

$$$$
>  <Molecule>
CCC(C)C(=O)O[C@@H]1C[C@@]2(C)[C@H](c3ccoc3)OC(=O)CC23OC2(C)OC34[C@H](OC(=O)C(C)C)[C@@]3(O)[C@@H](OC(=O)C5(C)OC5C)[C@@]5(C)C[C@]3(O)[C@@](C)([C@H]5CC(=O)OC)C14O2 (some centres not stated)

>  <Value>
0.999

$$$$

###

Overview of reported normalized growth across a group of molecules:
Experiment: chemical genetic growth profiling, strain panel (AID 1159580);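 further: tested at 20 µM; growth read once vehicle control cultures reached saturation at 30 °C; 1 = growth at the plate median or of vehicle wells; lower values mean less growth of the strain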
Settings: S. cerevisiae deletion strains, growth OD, locus YJL115W, strain asf1, stronger effect = lower value
Among all 5,500 compounds or so, about 2,000 (36%) were called active. Inconclusive results (about 18%) are left out. The list shows a part of the results.

>  <Molecule>
CNCCC(Oc1ccc(C(F)(F)F)cc1)c1ccccc1 (centres undefined)

>  <normalized growth>
0.993

$$$$
>  <Molecule>
CC(=O)Oc1cc(OC(C)=O)c2c(c1)O[C@H](c1ccc(OC(C)=O)c(OC(C)=O)c1)[C@@H](OC(C)=O)C2

>  <normalized growth>
0.99

$$$$
>  <Molecule>
O=C(O[C@@H]1Cc2c(O)cc(O)cc2O[C@@H]1c1cc(O)c(O)c(O)c1)c1cc(O)c(O)c(O)c1

>  <normalized growth>
0.988

$$$$
>  <Molecule>
CC(=O)Oc1cc(OC(C)=O)c2c(c1)O[C@H](c1ccc(OC(C)=O)c(OC(C)=O)c1)[C@H](OC(C)=O)C2

>  <normalized growth>
1

$$$$
>  <Molecule>
NCCc1cnc[nH]1

>  <normalized growth>
1.02

$$$$
>  <Molecule>
Nc1nc(=S)c2[nH]cnc2[nH]1

>  <normalized growth>
0.972

$$$$
>  <Molecule>
O=C(Oc1cc(OC(=O)c2ccccc2)c2c(c1)O[C@H](c1ccc(OC(=O)c3ccccc3)c(OC(=O)c3ccccc3)c1)[C@@H](OC(=O)c1ccccc1)C2)c1ccccc1

>  <normalized growth>
0.984

$$$$
>  <Molecule>
c1ccc2c(c1)CCCC2C1=NCCN1 (centres undefined)

>  <normalized growth>
1.01

$$$$
>  <Molecule>
CC(=O)S[C@@H]1CC2=CC(=O)CC[C@]2(C)[C@H]2CC[C@@]3(C)[C@@H](CC[C@@]34CCC(=O)O4)C12 (some centres undefined)

>  <normalized growth>
1.02

$$$$
